tested on: NCI-H522; experiment: NCI tumour cell line growth inhibition, 48 h
Activity calls are given as the source filed them. No stated cut-off is given here; in the data, active = GI50 up to about 1.1 µM and inactive = higher.
parameter: GI50

Record O=C(ON=C1c2ccccc2C(Br)C(Br)c2ccccc21)c1ccccc1 (stereo unspecified) ; system NCI-H522; GI50 = 1.69 µM (inactive)

Record for COc1cccc(C2CC(=O)c3cccn32)c1 (stereo unspecified) under target or system NCI-H522: GI50 reported as > 100 µM (inactive)

// assay NCI-H522, entry "Nc1nc2ccc(Sc3ccc4nc(N)[nH]c(=O)c4c3)cc2c(=O)[nH]1" , GI50 value = > 100 µM (inactive)

Observed GI50 on NCI-H522, entry "Cc1ccc(C(=O)N/N=C(\N=N\c2ccccc2C(=O)O)c2ccc(N(C)C)cc2)cc1" , equals 46.3 µM (inactive)

The compound COC(=O)C1SC[C@H]2C(=O)N(c3ccccc3)C(=O)N12 (stereo partly specified) on NCI-H522: GI50 was > 100 µM (inactive)

Considering N#Cc1ccc(NC(=O)C(CC(=O)OCc2ccccc2)NC(=O)OCc2ccccc2)cc1 (stereo unspecified) , its GI50 with NCI-H522 was recorded as > 10 µM (inactive)

###

test system: Malme-3M; assay: NCI tumour cell line growth inhibition, 48 h
Active and inactive are the calls of the source. No stated cut-off is given here; in the data, active = GI50 up to about 1.1 µM and inactive = higher.
parameter: GI50

Worked cases, GI50 given:
| compound | GI50 |
| --- | --- |
| Cc1c(-c2ccccc2)cc(O)c2nc3ccccc3n12 | > 100 µM (inactive) |
| CN(C)Cc1cc(C(=O)/C=C/c2ccc(Cl)c(Cl)c2)cc(CN(C)C)c1O | 2.88 µM (inactive) |
| C=CC(c1ccccc1)[C@@]1(OC(C)=O)C(=O)C(=O)OC1C1COC(C)(C)O1 (stereo partly drawn) | 15.2 µM (inactive) |
| Cc1cccc2c1C/C(=C\c1cccc(C)c1C(=O)O)C2=O | > 100 µM (inactive) |
| c1ccc(/N=C2\SC3=NCCN3\C2=N/c2ccccc2)cc1 | > 10 µM (inactive) |
| COC(=O)C(Cc1c[nH]c2ccccc12)NC(=O)C(Cc1c[nH]c2ccccc12)NC(=O)OCc1ccccc1 (stereo not drawn) | 39.6 µM (inactive) |
| Cn1cnc([N+](=O)[O-])c1Sc1nc2cccnc2s1 | 10.1 µM (inactive) |
| COCOCc1cc(OCc2ccccc2)c(OC)cc1Br | > 100 µM (inactive) |
| O=C1C(C(c2ccc([N+](=O)[O-])cc2)N2CCOCC2)=C(O)C(c2ccccc2)N1c1ccccc1 (stereo not drawn) | > 10 µM (inactive) |
| Cc1cccc(C)c1N1C(=O)C2c3[nH]c4ccccc4c3C3CCC(C(C)(C)C)CC3C2C1=O (stereo not drawn) | 14.4 µM (inactive) |

Record summary for "CC(=O)O[C@H]1C(=O)[C@@]2(C)[C@H]([C@H](OC(=O)c3ccccc3)[C@]3(O)C[C@H](OC(=O)[C@H](O)[C@@H](NC(=O)CC(C)C)c4ccccc4)C(C)=C1C3(C)C)[C@]1(OC(C)=O)CO[C@@H]1C[C@@H]2O" : reported GI50 = 0.0135 µM (active)

In plain terms, "CNC(=O)CCCNC(=O)CCCCC(=O)N(C)C" has a documented GI50 of > 100 µM (inactive)

What the record says about "O=C(/C=C/c1ccc(OCCCOc2ccc(/C=C/C(=O)c3ccccc3)cc2)cc1)c1ccccc1" : GI50 is > 100 µM (inactive)

"N#CC(C#N)=Cc1cccc(Oc2ccccc2)c1" yielded GI50 of 20.1 µM (inactive)

# GI50 (compound: Nc1nc(=O)c2c([nH]1)NCC(CCNc1ccc(C(=O)O)cc1)N2 (stereo not drawn) ) is > 100 µM (inactive)

GI50 reading for "C/C(=N\NC(=S)N/N=C(\C)c1ccccn1)c1ccccn1" : 2.38 µM (inactive)

// sample "CC1=C(C)C(=O)c2c(cc3ccc4ccccc4n23)C1=O" , its GI50 was > 100 µM (inactive)

Memo: "CCc1ccccc1NC(=O)C1=C(C)NC(C)=C(C(=O)Nc2ccccc2CC)C1c1ccc2c(c1)OCO2" , reported GI50: 25.3 µM (inactive)

For this compound ( "COC(=O)c1c(OC(C)=O)ccc2c1c1c(OC(C)=O)c3ccccc3c(OC(C)=O)c1n2Cc1ccccc1" ), measured GI50 is 7.8 µM (inactive)

GI50 measured on "O=C(O)c1ccccc1NS(=O)(=O)c1ccc([N+](=O)[O-])cc1" = > 100 µM (inactive)

The compound listed as "O=C1c2ccccc2-c2nc3ccncc3n21" shows GI50 equal to > 100 µM (inactive)
